Source listed as the RNAGym collection of RNA variant scans (doi:10.7554/elife.90254).

B1: LINE1-full (parent)
chain: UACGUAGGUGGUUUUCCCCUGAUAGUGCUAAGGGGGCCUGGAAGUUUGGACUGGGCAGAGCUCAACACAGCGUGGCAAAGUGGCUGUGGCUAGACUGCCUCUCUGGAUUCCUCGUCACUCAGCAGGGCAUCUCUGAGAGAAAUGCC

Variants of: B1
Method: self-cleavage, relative activity (ratio to wild type); higher = more cleavage; in vitro, sequencing; the parent is a self-cleaving ribozyme
Property name: self-cleavage

>>> df
    variant_annotation  result
 0          C38U U112C    1.35
 1          A92U U102A    0.79
 2            C3U U45C     0.8
 3          G40A A129U    0.46
 4          U47A U119A    1.34
 5          A43U U130A    1.67
 6         U108C A140G    1.74
 7           G4A A107G     1.6
 8           G48A A94G    0.13
 9         U115C A124C    2.09
10                A57U     0.1
11           G34A U87G     0.2
12         C116A U132A    0.67
13           A31G U87C    0.22
14          A69U A121U    0.05
15           G34U U62C    0.02
16         A117U A136G    1.51
17           A31G U46C    1.67
18           U15A A43G    0.97
19         U115C C145G    1.64
20          A65U A140G    0.26
21            A2G U39A    0.89
22           G58A U62C    0.08
23          U12G A129G    1.14
24           U9C U112C    1.45
25          G82A U119A    1.96
26         U115C A121C    1.66
27           C16U U39C    1.35
28          A57U A124U    0.09
29          A67C A138U    0.03
30           U20C A50U    1.32
31          G88A A129G    0.07
32           G44A U46C    1.06
33           G34U C90U       0
34           U12G U96A    0.21
35          U46C U134A     1.1
36           A59G A78U     0.1
37         C110A A140G    1.44
38           A67U U87C    0.21
39          A22G A107U       0
40          G36A U115C    1.53
41          A94U C120G     0.3
42            G4U U73C    2.45
43         A107G U132A    0.88
44           U29C G36A    1.63
45           U13A A69C    0.08
